# Tested on: Trypanosoma brucei
# ASSAY_EXPLANATION: Trypanocidal activity against bloodstream form of Trypanosoma brucei 221 assessed as inhibition of parasite growth at pH 7.4 after 48 hrs by Spectramax plate reader analysis
# Format: functional, organism-based
# CONDITION: Trypanosoma brucei, 221, 48 h
PROPERTY_NAME: IC90 (nM)

# COMPOUND, PROPERTY_NAME, RESULT
records = [
    ("CC1=C[C@H]2Cc3nc4cc(Cl)ccc4c(NCCCCCCCNc4c5c(nc6ccccc46)CCCC5)c3[C@@H](C1)C2", "IC90", 420),
    ("CC1=CC2Cc3nc4ccccc4c(NCCCCCCCCCCCCNc4c5c(nc6ccccc46)CCCC5)c3C(C1)C2 (stereo not drawn)", "IC90", 280),
    ("CCC1=CC2Cc3nc4cc(Cl)ccc4c(NCCN4CCC(CC5Cc6cc(OC)c(OC)cc6C5)CC4)c3C(C1)C2 (stereo not drawn)", "IC90", 700),
    ("COc1cc2c(cc1OC)CC(CC1CCN(CCNc3c4c(nc5ccccc35)CCCC4)CC1)C2", "IC90", 790),
    ("CC1=CC2Cc3nc4ccccc4c(NCCCCCCCCCCNc4c5c(nc6ccccc46)CCCC5)c3C(C1)C2 (stereo not drawn)", "IC90", 310),
    ("COc1cc2c(cc1OC)CC(CC1CCN(CCCNc3c4c(nc5cc(Cl)ccc35)CC3C=C(C)CC4C3)CC1)C2 (stereo not drawn)", "IC90", 350),
    ("COc1cc2c(cc1OC)C(=O)C(CC1CCN(CCNc3c4c(nc5ccccc35)CCCC4)CC1)C2 (stereo not drawn)", "IC90", 880),
    ("CCC1=C[C@@H]2Cc3nc4cc(Cl)ccc4c(NCCCN4CCC(CC5Cc6cc(OC)c(OC)cc6C5)CC4)c3[C@H](C1)C2", "IC90", 1330),
]
